System: ONS-76 (Other Solid Carcinomas);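 also: after 72 h of two-drug dosing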
Assay: Bliss excess, mean over the matrix (fraction); higher = more synergy

{"compound": "CC1(C)CCC(CN2CCN(c3ccc(C(=O)NS(=O)(=O)c4ccc(NCC5CCOCC5)c([N+](=O)[O-])c4)c(Oc4cnc5[nH]ccc5c4)c3)CC2)=C(c2ccc(Cl)cc2)C1 [Venetoclax] + Cn1cnc2c(F)c(Nc3ccc(Br)cc3Cl)c(C(=O)NOCCO)cc21 [Selumetinib] (first compound max 1 µM, 7x7, partner max 3 µM)", "Bliss excess": -0.141}
{"compound": "C[C@@H]1COCCN1c1cc(C2([S@](C)(=N)=O)CC2)nc(-c2ccnc3[nH]ccc23)n1 [AZD6738] + C1CC(C1)(C(=O)[O-])C(=O)[O-].N.N.[Pt+2] [Carboplatin] (first compound max 10 µM, 7x7, partner max 10 µM)", "Bliss excess": -0.0512}
{"compound": "C=CCn1c(=O)c2cnc(Nc3ccc(N4CCN(C)CC4)cc3)nc2n1-c1cccc(C(C)(C)O)n1 [AZD1775] + Nc1ccn([C@@H]2O[C@H](CO)[C@@H](O)C2(F)F)c(=O)n1 [Gemcitabine] (first compound max 1 µM, partner max 0.3 µM)", "Bliss excess": -0.0804}
{"compound": "C=CCn1c(=O)c2cnc(Nc3ccc(N4CCN(C)CC4)cc3)nc2n1-c1cccc(C(C)(C)O)n1 [AZD1775] + C1CN(CCC1(C(=O)N[C@@H](CCO)C2=CC=C(C=C2)Cl)N)C3=NC=NC4=C3C=CN4 [Capivasertib] (first compound max 3 µM, partner max 3 µM)", "Bliss excess": -0.0258}
{"compound": "C=CCn1c(=O)c2cnc(Nc3ccc(N4CCN(C)CC4)cc3)nc2n1-c1cccc(C(C)(C)O)n1 [AZD1775] + CCc1c2c(nc3ccc(O)cc13)-c1cc3c(c(=O)n1C2)COC(=O)[C@]3(O)CC [SN-38] (first compound max 1 µM, partner max 0.3 µM)", "Bliss excess": -0.0392}
{"compound": "Cc1cc2ncnn2cc1Nc1ncc2c(n1)n(C1CCOCC1)c(=O)n2C [AZD7648] + C=CCn1c(=O)c2cnc(Nc3ccc(N4CCN(C)CC4)cc3)nc2n1-c1cccc(C(C)(C)O)n1 [AZD1775] (first compound max 10 µM, partner max 1 µM)", "Bliss excess": -0.0046}
{"compound": "NC1(C(=O)N[C@@H](CCO)c2ccc(Cl)cc2)CCN(c2ncnc3[nH]ccc23)CC1 [Capivasertib] + COc1nnc2ccc(N3CCC(c4ccc(OCCN5CCN(C)C(=O)[C@H]5C)cc4)CC3)nn12 [AZD5153] (first compound max 10 µM, 7x7, partner max 1 µM)", "Bliss excess": 0.0234}
{"compound": "COc1cccc(OCCCN)c1-c1cc(Nc2cnc(C#N)cn2)n[nH]1 [Prexasertib] + C[C@@H]1COCCN1C2=NC(=NC(=C2)C3(CC3)[S@](=N)(=O)C)C4=C5C=CNC5=NC=C4 [AZD6738] (first compound max 1 µM, 7x7, partner max 10 µM)", "Bliss excess": -0.0803}
{"compound": "CN(CCO)CC[C@H](CSc1ccccc1)Nc1ccc(S(=O)(=O)NC(=O)c2ccc(N3CCC([C@@H](O)c4ccccc4-c4ccc(Cl)cc4)CC3)cc2)cc1S(=O)(=O)C(F)(F)F [AZD4320] + Nc1ccn([C@@H]2O[C@H](CO)[C@@H](O)C2(F)F)c(=O)n1 [Gemcitabine] (first compound max 1 µM, 7x7, partner max 0.3 µM)", "Bliss excess": 0.003}
{"compound": "Cc1c2c(nn1C)CSCc1cc(n(C)n1)CSc1cc(c3ccccc3c1)OCCCc1c(C(=O)O)n(C)c3c-2c(Cl)ccc13 [AZD5991] + CC1(C)CCC(CN2CCN(c3ccc(C(=O)NS(=O)(=O)c4ccc(NCC5CCOCC5)c([N+](=O)[O-])c4)c(Oc4cnc5[nH]ccc5c4)c3)CC2)=C(c2ccc(Cl)cc2)C1 [Venetoclax] (first compound max 1 µM, 7x7, partner max 1 µM)", "Bliss excess": -0.0214}
{"compound": "Cc1c2c(nn1C)CSCc1cc(n(C)n1)CSc1cc(c3ccccc3c1)OCCCc1c(C(=O)O)n(C)c3c-2c(Cl)ccc13 [AZD5991] + Cc1cc2ncnn2cc1Nc1ncc2c(n1)n(C1CCOCC1)c(=O)n2C [AZD7648] (first compound max 1 µM, 7x7, partner max 10 µM)", "Bliss excess": -0.0236}
{"compound": "CS(=O)(=O)CCNCc1ccc(-c2ccc3ncnc(Nc4ccc(OCc5cccc(F)c5)c(Cl)c4)c3c2)o1 [Lapatinib] + C[C@@H](Oc1cc(-c2cnn(C3CCNCC3)c2)cnc1N)c1c(Cl)ccc(F)c1Cl [Crizotinib] (first compound max 10 µM, 7x7, partner max 10 µM)", "Bliss excess": -0.0667}
